- Tested on: TRPA1V1
- METHOD: Intracellular calcium (Fluo-4, FLIPR) activation of TRPA1V1 cells (co-expressing TRPA1 and TRPV1) by GRAS compounds;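 note: HEK293 cells co-expressing TRPA1 and TRPV1, fluorescence read at 488/514 nm after baseline subtraction, recorded every 2 s over 10 min, ionomycin 10 µM and buffer as controls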
- Assay type: cell-based, human
- SETTINGS: Table 1(c); 1 mM; relative to AITC 30 μM
Short version: A1V1 activation, % of agonist value at least 60% is Met, less is Not met.

CSSc1ccoc1C [Methyl 2-methyl-3-furyl disulfide] = Not met
SCCCCCCS [1,6-Hexanedithiol] = Not met
C=CCc1ccc(O)c(OC)c1 [Eugenol] = Met
CC1=CCCC(C)(C)C12CCC(C)O2 (centres unmarked) [Theaspirane] = Met
COc1ccc(CCC(C)=O)cc1 [4-Methoxybenzylacetone] = Met
CC(=O)/C=C/C1C(C)=CCCC1(C)C (racemic) [(+/−)-Alpha-Ionone] = Met
O=C(Nc1ccccc1C(=O)O)c1ccccc1 [Benzoylanthranilic acid] = Met
C=CCCC=O [4-Pentenal] = Met
CCCCCC=CC=CCO [2,4-Decadienol] = Not met
CCCC(=O)OCc1ccccc1 [Benzyl butyrate] = Met
C=CCCN=C=S [3-Butenyl isothiocyanate] = Met
COC(=O)c1ccccc1OC [Methyl 2-methoxybenzoate] = Met
OCc1ccccc1 [Benzenemethanol] = Met
C/C=C/C=C/C(=O)OC [Methyl sorbate] = Met
CC(=O)CCC1=C(C)CCCC1(C)C [Dihydro-beta-ionone] = Met
CC=Cc1ccc(OC(C)=O)c(OC)c1 [Isoeugenyl acetate] = Met
CC=CC=CCOC(=O)CC [2,4-Hexadienyl propionate] = Met
C=CCOC(=O)c1ccccc1N [Allyl anthranilate] = Met
CC1=NC(CC(C)C)SC1C (centres unmarked) [3-Thiazoline, 4,5-dimethyl-2-isobutyl-] = Met
CC1=C(C=O)C(C)(C)CC=C1 [Safranal] = Met
